tested on: Escherichia coli TOP10; test: shrunken log2 fold change of peptide-encoding DNA abundance (4.5 h post-induction vs induction); higher = less antimicrobial activity (less host growth inhibition); conditions: time post-induction: 4.5 h; library: site-saturation at positions 5, 18, 19, 20
Criterion: shrunken log2 fold change meeting or surpassing 0.2. Met: fulfilled. Not met: not fulfilled.

Query :: Would you say RRIRARPPRLPRPRPRPSKMPRP shows shrunken log2 fold change at minimum 0.2?
Result :: not fulfilled

====

test system: Escherichia coli TOP10; test: shrunken log2 fold change of peptide-encoding DNA abundance (4.5 h post-induction vs induction); higher = less antimicrobial activity (less host growth inhibition); details: time post-induction: 4.5 h; library: site-saturation at positions 5, 18, 19, 20;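 note: peptides expressed intracellularly from a pBAD plasmid library in pooled LB shake-flask culture, induced with 0.3% L-arabinose, DNA abundance read by NGS, three biological replicates, DESeq2 with apeglm shrinkage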
assay_endpoint: shrunken log2 fold change

// recorded shrunken log2 fold change for RRIRFRPPRLPRPRPRPDTQPRP : 0.0363
